Source listed as patent US11401279B2.

test: In vivo pharmacokinetics in rats; design: species or system Sprague Dawley rats; conditions: male, Sprague-Dawley, plasma; rat, 1.0 mg/kg IV, cassette dosing; read-out: Vss
# Vd per record follows
measured.endpoint: Vd (L/kg)

- compound: "Cc1c(NC(=O)c2nc3c(n2C)CCN(CCC24CCC(C(=O)O)(CC2)C4)C3)cccc1-c1cccc(Nc2nc(C(F)F)nc3cc(CN4CC[C@@H](O)C4)cnc23)c1C"
  measured.endpoint: "Vd"
  endpoint.value: 1.63
- compound: "Cc1c(-c2nc3cc(CN4CC[C@@H](O)C4)cc(C#N)c3o2)cccc1-c1cccc(NC(=O)c2nc3c(n2C)CCN(CCC2CCC(C(=O)O)CC2)C3)c1Cl (stereo partly drawn)"
  measured.endpoint: "Vd"
  endpoint.value: 4.45
- compound: "Cc1c(NC(=O)c2nc3c(n2C)CCN(CC24CCC(C(=O)O)(CC2)C4)C3)cccc1-c1cccc(NC(=O)c2nc3c(n2C)CCN(C)C3)c1Cl"
  measured.endpoint: "Vd"
  endpoint.value: 1.96

====

tested on: PD-L1 aAPC/CHO-K1 cells and Jurkat-PD-1-NFAT effector cells; assay: Nuclear factor of activated T-cells (NFAT) assay; assay type: cell-based; details: luminescence, 24 hours
pEC50: −log10 of the molar value.

- smiles.text: "Cn1c(C(=O)Nc2cccc(-c3cccc(NC(=O)c4nc5c(n4C)CCN(CC46CCC(C(=O)O)(CC4)C6)C5)c3Cl)c2Cl)nc2c1CCN(CCO)C2"
  study.system: "PD-L1 aAPC/CHO-K1 cells and Jurkat-PD-1-NFAT effector cells"
  pEC50: 7.52

====

# pIC50 per record follows
target: PD-L1 (Homo sapiens (Human)); assay: PD-L1 whole blood internalization assay; conditions: PD-L1 internalization in human whole blood, CD14+ cells, interferon γ, 24 hour
Sequence (Q9NZQ7 19-290): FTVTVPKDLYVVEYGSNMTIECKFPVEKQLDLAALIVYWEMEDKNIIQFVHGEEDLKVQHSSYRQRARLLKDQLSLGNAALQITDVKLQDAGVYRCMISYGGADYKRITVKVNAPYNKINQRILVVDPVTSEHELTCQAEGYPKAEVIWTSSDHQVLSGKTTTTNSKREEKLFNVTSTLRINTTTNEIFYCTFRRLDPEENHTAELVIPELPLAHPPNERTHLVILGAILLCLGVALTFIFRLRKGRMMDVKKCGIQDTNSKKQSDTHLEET
pIC50: −log10 of the molar value.
measured.endpoint: pIC50

- compound: "Cc1c(Nc2nc(C(F)F)nc3cc(CN4CC[C@H](O)C4)cnc23)cccc1-c1cccc(NC(=O)c2nc3c(n2C)CCN(CCC24CCC(C(=O)O)(CC2)C4)C3)c1Cl"
  endpoint.value: 7.74
- compound: "Cn1c(C(=O)Nc2cccc(-c3cccc(NC(=O)c4nc5c(n4C)CCN(C4CCC4)C5)c3Cl)c2Cl)nc2c1CCN(CC13CCC(C(=O)O)(CC1)C3)C2 [Example 178, reference compound]"
  endpoint.value: 6.23
- compound: "CCN1CCc2c(nc(C(=O)Nc3cccc(-c4cccc(NC(=O)c5nc6c(n5C)CCN(CC57CCC(C(=O)O)(CC5)C7)C6)c4Cl)c3Cl)n2C)C1 [Example 176, reference compound]"
  endpoint.value: 6.14
- compound: "Cc1c(-c2nc3cc(CN4CC[C@@H](O)C4)cc(C#N)c3o2)cccc1-c1cccc(NC(=O)c2nc3c(n2C)CCN(CCC2CCC(C(=O)O)CC2)C3)c1Cl (stereo partly drawn)"
  endpoint.value: 7.21
- compound: "Cc1c(Nc2nc(C(F)F)nc3cc(CN4CC(C)(O)C4)cnc23)cccc1-c1cccc(NC(=O)c2nc3c(n2C)CCN(CCC24CCC(C(=O)O)(CC2)C4)C3)c1Cl"
  endpoint.value: 7.70
- compound: "Cc1c(NC(=O)c2nc3c(n2C)CCN(CCC24CCC(C(=O)O)(CC2)C4)C3)cccc1-c1cccc(Nc2nc(C(F)F)nc3cc(CN4CC[C@](C)(O)C4)cnc23)c1C"
  endpoint.value: 7.28
- compound: "Cc1c(Nc2nc(C(F)F)nc3cc(CN4CC(O)C4)cnc23)cccc1-c1cccc(NC(=O)c2nc3c(n2C)CCN(CCC24CCC(C(=O)O)(CC2)C4)C3)c1Cl"
  endpoint.value: 7.62
- compound: "Cn1c(C(=O)Nc2cccc(-c3cccc(NC(=O)c4nc5c(n4C)CCN(C4CCC(O)CC4)C5)c3Cl)c2Cl)nc2c1CCN(CC13CCC(C(=O)O)(CC1)C3)C2 (stereo not drawn) [Example 183, reference compound]"
  endpoint.value: 7.31
- compound: "C[C@@H](O)CN1CCc2c(nc(C(=O)Nc3cccc(-c4cccc(NC(=O)c5nc6c(n5C)CCN(CC57CCC(C(=O)O)(CC5)C7)C6)c4Cl)c3Cl)n2C)C1 [Example 182, reference compound]"
  endpoint.value: 7.04
- compound: "Cc1c(NC(=O)c2nc3c(n2C)CCN(CCC24CCC(C(=O)O)(CC2)C4)C3)cccc1-c1cccc(Nc2nc(C(F)F)nc3cc(CN4CC[C@@](C)(O)C4)cnc23)c1C"
  endpoint.value: 7.51
- compound: "Cc1c(Nc2nc(C(F)F)nc3cc(CN4CC[C@@](C)(O)C4)cnc23)cccc1-c1cccc(NC(=O)c2nc3c(n2C)CCN(CCC24CCC(C(=O)O)(CC2)C4)C3)c1Cl"
  endpoint.value: 8.10
- compound: "Cc1c(NC(=O)c2nc3c(n2C)CCN(CCC24CCC(C(=O)O)(CC2)C4)C3)cccc1-c1cccc(Nc2nc(C(F)F)nc3cc(CN4CC[C@@H](O)C4)cnc23)c1C"
  endpoint.value: 7.22

====

system: PD-L1 aAPC/CHO-K1 cells and Jurkat-PD-1-NFAT effector cells; experiment: Nuclear factor of activated T-cells (NFAT) assay; assay type: cell-based; conditions: Cricetulus griseus, CHO-K1; luminescence, 24 hours
pEC50: −log10 of the molar value.
# pEC50 per record follows
measured.endpoint: pEC50

- compound: "Cc1c(-c2nc3cc(CN4CC[C@@H](O)C4)cc(C#N)c3o2)cccc1-c1cccc(NC(=O)c2nc3c(n2C)CCN(CCC2CCC(C(=O)O)CC2)C3)c1Cl (some centres unmarked)"
  study.system: "PD-L1 aAPC/CHO-K1 cells and Jurkat-PD-1-NFAT effector cells"
  endpoint.value: 7.82
- compound: "Cc1c(NC(=O)c2nc3c(n2C)CCN(CCC24CCC(C(=O)O)(CC2)C4)C3)cccc1-c1cccc(Nc2nc(C(F)F)nc3cc(CN4CC[C@H](O)C4)cnc23)c1C"
  study.system: "PD-L1 aAPC/CHO-K1 cells and Jurkat-PD-1-NFAT effector cells"
  endpoint.value: 8.05
- compound: "CN1CCc2c(nc(C(=O)Nc3cccc(-c4cccc(NC(=O)c5nc6c(n5C)CCN(CC57CCC(C(=O)O)(CC5)C7)C6)c4Cl)c3Cl)n2C)C1"
  study.system: "PD-L1 aAPC/CHO-K1 cells and Jurkat-PD-1-NFAT effector cells"
  endpoint.value: 7.33
- compound: "Cc1c(NC(=O)c2nc3c(n2C)CCN(CCC24CCC(C(=O)O)(CC2)C4)C3)cccc1-c1cccc(Nc2nc(C(F)F)nc3cc(CN4CC[C@@H](O)C4)cnc23)c1C"
  study.system: "PD-L1 aAPC/CHO-K1 cells and Jurkat-PD-1-NFAT effector cells"
  endpoint.value: 8.04
- compound: "Cc1c(Nc2nc(C(F)F)nc3cc(CN4CC(C)(O)C4)cnc23)cccc1-c1cccc(NC(=O)c2nc3c(n2C)CCN(CCC24CCC(C(=O)O)(CC2)C4)C3)c1Cl"
  study.system: "PD-L1 aAPC/CHO-K1 cells and Jurkat-PD-1-NFAT effector cells"
  endpoint.value: 8.52

====

assay: In vivo pharmacokinetics in monkeys; conditions: both sexes, plasma; cynomolgus monkey, 1.0 mg/kg IV, cassette dosing; read-out: Vss
# Vd per record follows

- molecule: "Cc1c(Nc2nc(C(F)F)nc3cc(CN4CC[C@@](C)(O)C4)cnc23)cccc1-c1cccc(NC(=O)c2nc3c(n2C)CCN(CCC24CCC(C(=O)O)(CC2)C4)C3)c1Cl [Example 2]"
  Vd / L/kg: 1.36
- molecule: "Cc1c(Nc2nc(C(F)F)nc3cc(CN4CC[C@@H](O)C4)cnc23)cccc1-c1cccc(NC(=O)c2nc3c(n2C)CCN(CCC24CCC(C(=O)O)(CC2)C4)C3)c1Cl [Example 1]"
  Vd / L/kg: 1.01
- molecule: "Cc1c(NC(=O)c2nc3c(n2C)CCN(CCC24CCC(C(=O)O)(CC2)C4)C3)cccc1-c1cccc(Nc2nc(C(F)F)nc3cc(CN4CC[C@@H](O)C4)cnc23)c1C [Example 5]"
  Vd / L/kg: 1.14

====

assay: In vivo pharmacokinetics in rats; set-up: species or system Sprague Dawley rats; conditions: male, Sprague-Dawley, plasma; rat, 1.0 mg/kg IV, cassette dosing
# clearance per record follows
measured.endpoint: clearance (mL/min/kg)

- compound: "Cc1c(-c2nc3cc(CN4CC[C@@H](O)C4)cc(C#N)c3o2)cccc1-c1cccc(NC(=O)c2nc3c(n2C)CCN(CCC2CCC(C(=O)O)CC2)C3)c1Cl (stereo partly shown) [Example 265]"
  endpoint.value: 63.7
- compound: "Cc1c(Nc2nc(C(F)F)nc3cc(CN4CC[C@@](C)(O)C4)cnc23)cccc1-c1cccc(NC(=O)c2nc3c(n2C)CCN(CCC24CCC(C(=O)O)(CC2)C4)C3)c1Cl [Example 2]"
  endpoint.value: 7.85
- compound: "Cc1c(Nc2nc(C(F)F)nc3cc(CN4CC[C@@H](O)C4)cnc23)cccc1-c1cccc(NC(=O)c2nc3c(n2C)CCN(CCC24CCC(C(=O)O)(CC2)C4)C3)c1Cl [Example 1]"
  endpoint.value: 6.15
- compound: "Cc1c(NC(=O)c2nc3c(n2C)CCN(CCC24CCC(C(=O)O)(CC2)C4)C3)cccc1-c1cccc(Nc2nc(C(F)F)nc3cc(CN4CC[C@@](C)(O)C4)cnc23)c1C [Example 6]"
  endpoint.value: 12.7
- compound: "CN1CCc2c(nc(C(=O)Nc3cccc(-c4cccc(NC(=O)c5nc6c(n5C)CCN(CC57CCC(C(=O)O)(CC5)C7)C6)c4Cl)c3Cl)n2C)C1 [Example 84]"
  endpoint.value: 16.5
- compound: "Cc1c(NC(=O)c2nc3c(n2C)CCN(CC24CCC(C(=O)O)(CC2)C4)C3)cccc1-c1cccc(NC(=O)c2nc3c(n2C)CCN(C)C3)c1Cl [Example 102]"
  endpoint.value: 19
- compound: "Cc1c(NC(=O)c2nc3c(n2C)CCN(CCC24CCC(C(=O)O)(CC2)C4)C3)cccc1-c1cccc(Nc2nc(C(F)F)nc3cc(CN4CC[C@@H](O)C4)cnc23)c1C [Example 5]"
  endpoint.value: 6.93
